STUDY_SYSTEM: USP5-Cav3.2 interaction (recombinant USP5 binding to immobilized Cav3.2 domain III-IV linker peptides) (Homo sapiens)
METHOD_NOTES: Cav3.2-USP5 ELISA assay
ASSAY_CONTEXT: Cav3.2-USP5 ELISA of Example 1; concentration not given
QUANTITY_KIND: Percent Inhibition (%)

The examples below pair each entry with its known result.
COMPOUND	RESULT_UNITS	REPORTED_VALUE
NCCCCC(NCC1SC(=S)NC1=O)C(=O)O (stereo not drawn) [II-6]	%	87
CC(C)CC(NCC1SC(=S)NC1=O)C(=O)O (stereo not drawn) [II-4]	%	100
CC(C)C(NCC1SC(=S)NC1=O)C(=O)O (stereo not drawn) [II-3]	%	100
O=C1NC(=S)SC1CNC1(CCO)CCCCC1 (stereo not drawn) [II-11]	%	75

I = O=C(O)CN(CC(=O)O)CC1SC(=S)NC1=O (stereo not drawn) [II-7]
II = O=C1NC(=S)SC1CNCCCO (stereo not drawn) [II-9]
Query: Hi team, can someone confirm which has the larger Percent Inhibition: I or II ? Thanks. Record your answer as the label of the chosen record.
Response: I
(I: 85%, II: 6%)

---

STUDY_SYSTEM: USP5-Cav3.2 interaction (recombinant USP5 binding to immobilized Cav3.2 domain III-IV linker peptides) (Homo sapiens, UniProt P45974)
Sequence (P45974 whole entry): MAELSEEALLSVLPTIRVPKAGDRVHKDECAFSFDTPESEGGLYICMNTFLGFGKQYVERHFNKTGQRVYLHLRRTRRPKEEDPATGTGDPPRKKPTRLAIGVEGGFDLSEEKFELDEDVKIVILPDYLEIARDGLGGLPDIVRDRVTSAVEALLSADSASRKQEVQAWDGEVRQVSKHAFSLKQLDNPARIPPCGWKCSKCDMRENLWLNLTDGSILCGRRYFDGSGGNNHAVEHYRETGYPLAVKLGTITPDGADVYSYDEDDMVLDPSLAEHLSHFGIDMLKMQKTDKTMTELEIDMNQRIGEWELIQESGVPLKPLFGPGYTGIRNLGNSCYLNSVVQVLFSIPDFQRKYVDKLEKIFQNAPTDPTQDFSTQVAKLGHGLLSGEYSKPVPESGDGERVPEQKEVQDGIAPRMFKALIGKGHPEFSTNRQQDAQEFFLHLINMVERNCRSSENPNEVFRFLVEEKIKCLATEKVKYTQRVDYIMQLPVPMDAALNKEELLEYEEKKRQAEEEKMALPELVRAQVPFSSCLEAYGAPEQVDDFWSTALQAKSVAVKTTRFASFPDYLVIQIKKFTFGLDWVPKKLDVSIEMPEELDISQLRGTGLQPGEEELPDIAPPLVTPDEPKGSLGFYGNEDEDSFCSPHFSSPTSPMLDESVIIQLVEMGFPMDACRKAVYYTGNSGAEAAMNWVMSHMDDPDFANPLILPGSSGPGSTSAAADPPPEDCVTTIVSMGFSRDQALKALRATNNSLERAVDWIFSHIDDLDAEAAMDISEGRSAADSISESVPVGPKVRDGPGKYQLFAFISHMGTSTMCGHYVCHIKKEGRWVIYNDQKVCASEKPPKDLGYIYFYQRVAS
METHOD_NOTES: Cav3.2-USP5 ELISA assay
ASSAY_CONTEXT: Cav3.2-USP5 ELISA of Example 1; concentration not given
Source text: FIG. 3 is a schematic of the high throughput ELISA assay used to screen the exemplary compound of the applications. Here the Cav3.2 III-1V linker is immobilized and then recombinant USP5 is allowed to bind. Binding is detected via antibodies conjugated to horseradish peroxidase for a fluorescent readout. Compounds are applied and a reduction in fluorescence is indicative of a disruption of USP5-Cav3.2 interactions. […]
QUANTITY_KIND: Percent Inhibition (%)

The examples below pair each entry with its known result.
MOLECULE	Percent Inhibition (%)
CC(O)C(NCC1SC(=S)NC1=O)C(=O)O (stereo not drawn)	100
CCC(C)C(NCC1SC(=S)NC1=O)C(=O)O (stereo not drawn)	86
O=C(O)CCNCC1SC(=S)NC1=O (stereo not drawn)	82
CC(CO)(CO)NCC1SC(=S)NC1=O (stereo not drawn)	100

1 = O=C1NC(=S)SC1CNC1CCCCC1 (stereo not drawn)
2 = CC(C)CCC(CCC(C)C)NCC1SC(=S)NC1=O (stereo not drawn)
Query: Hi team, can someone confirm which has the larger Percent Inhibition: 1 or 2 ? Thanks. Record your answer as the label of the chosen record.
Response: 1
(1: 82%, 2: 28%)
